- experimental details: qHTS for Inhibitors of the Functional Ribonucleoprotein Complex (vRNP) of Lassa (LASV) Arenavirus: Viability assay - alamar blue signal for LASV Primary Screen (AID 1347083); also: nearly all actives have a fitted effect of over 80% in size
- test conditions: cell viability, alamar blue fluorescence (LASV minigenome counter-screen); series mostly up to 57.5 µM
Records with an inconclusive call do not appear. Active and inactive are the calls of the source. Calls follow the shape of the full dose curve; tested in HEK293 reporter line.
Write down one outcome, taken from yes (1) (active), no (0) (inactive)

Recorded results for 3 compounds are shown here.
{"smiles string": "CC(=Cc1csc(C)n1)[C@@H]1C[C@H]2O[C@@H]2CCC[C@H](C)[C@@H](O)[C@@H](C)C(=O)C(C)(C)[C@@H](O)CC(=O)O1", "label": "no (0)"}
{"smiles string": "CN(C)[C@@H]1C(=O)C(C(N)=O)=C(O)[C@@]2(O)C(=O)C3=C(O)c4c(O)cccc4[C@@](C)(O)[C@H]3[C@H](O)[C@@H]12", "label": "no (0)"}
{"smiles string": "Cc1ccc(-c2ncn(-c3ccc(Nc4nccc(-c5cccc(N6CCOCC6)c5)n4)cc3)n2)cn1", "label": "yes (1)"}

# input for lookup
Fill in: this test's call for O=C(O)CNC(=O)c1c(O)c2ccccc2n(Cc2ccccc2)c1=O is ___
no (0)
